Below: a set of entries, each annotated with reported solubility at 24 h.
METHOD: Solubility of hydrochloride and free base in different media (37°C, 24 hours, HPLC)
Assay type: physicochemical
EXPERIMENTAL_SETUP: fassgf or other biorelevant, thermodynamic from solid, FaSSCoF
READOUT: solubility at 24 h

COMPOUND	READOUT	TEST_VALUE
O=C(N[C@H]1C[C@H](CCN2CCN(c3cccc(Cl)c3Cl)CC2)C1)c1ncco1 [crystal form B of free base]	solubility at 24 h	> 1000 µg/mL
Cl.O=C(N[C@H]1C[C@H](CCN2CCN(c3cccc(Cl)c3Cl)CC2)C1)c1ncco1 [hydrochloride]	solubility at 24 h	> 1000 µg/mL
